methodDescription: RLM stability (High Activity)
Type: in vitro ADME, Sprague Dawley rats
setupConditions: male, Sprague Dawley, rat, liver microsomes, pH 7.4, Condition 2 (High Activity), 1 μM, 1.0 mg protein/mL
Procedure: RLM Stability (High Activity). Pooled RLM from male Sprague Dawley rats (XenoTech R1000, lot #1910100) were used. Microsomal incubations were carried out in 96-well plates in 5 aliquots of 40 μL each (one for each time point). […] Five time points over 60 minutes were analyzed. […] Supernatants were analyzed for parent compound remaining using a fit-for-purpose liquid chromatography-tandem mass spectrometry (LC-MS/MS) method, with authentic samples of each analyte used for identity confirmation. […]
Grouping rule (half-life at 1 μM): class 1 = under 20 min, class 2 = from 20 min up to 40 min, class 3 = 40 min and over

| molecule | labelValue |
| --- | --- |
| O=C1CCCC[C@@]1(c1ccccc1)N1CCC1 [Compound 84S] | class 2 |
| COCCNC1(c2ccccc2)CCCCC1=O (racemic) | class 1 |
| CN[C@]1(c2cccc(F)c2)CCCCC1=O [Compound 19S] | class 1 |
| O=C1CCCC[C@]1(c1ccccc1)N1CCC1 [Compound 84R] | class 2 |
| CNC1(c2ccccc2Cl)CCCCC1=O (racemic) [rac-ketamine, racemic ketamine, reference compound] | class 1 |
| CN[C@@]1(c2ccccc2)CCCCC1=O [Compound 14R] | class 1 |
| [2H]C([2H])([2H])N[C@]1(c2ccccc2)CCCCC1=O [Compound 88S] | class 3 |
| CN[C@@]1(c2cccc(F)c2)CCCCC1=O [Compound 19R] | class 1 |
| N[C@@]1(c2ccccc2)CCCCC1=O [Compound 11R, (R)-2-amino-2-phenyl-cyclohexan-1-one] | class 3 |
| N[C@]1(c2ccccc2)CCCCC1=O [Compound 11S, (S)-2-amino-2-phenyl-cyclohexan-1-one] | class 3 |
| CN[C@]1(c2ccccc2)CCCCC1=O [Compound 14S] | class 2 |
